# test.system: E. coli β-glucuronidase (eβG) (Escherichia coli)
# Construct: histidine tag (N); made in house; host or cells: E. coli BL21 (DE3)
# method.summary: In vitro βG-activity assay (pNPG hydrolysis), eβG
# Type: biochemical
# particulars: 50 μM compound, pH 7.3, percent of activity vs untreated control
Threshold 20%. eβG activity (%) with 50 μM compound below it: Criterion met. eβG activity (%) with 50 μM compound at it or above: Criterion not met.

Threshold test, eβG activity (%) with 50 μM compound < 20%: O=C(O)C1CCCCC1C(=O)Nc1ccc(Oc2ccc(Cl)cc2)cc1 (stereo not shown) [Compound 1013]
Criterion not met

Another: CNC(=S)Nn1cnc2c(cnn2-c2ccccc2)c1=N [Compound 2138]
Criterion met

Ok, now O=C1C=C(Nc2cccc3cc(S(=O)(=O)O)ccc23)c2ccccc2C1=O [Compound 4277]
Criterion not met

What about COc1ccc2ccccc2c1CNCC1CCNCC1 [Compound 9927] ?
Criterion not met

What do we get for CC1=NN(c2ccc(Cl)cc2)C(=O)/C1=C\N1CCN(C)CC1 [Compound 6003] ?
Criterion met

Likewise for CCc1sc(NC(=O)C2CCCCC2C(=O)O)nc1-c1ccccc1 (stereo not shown) [Compound 1501] ?
Criterion not met

Request: O=C(O)C1CC=CCC1C(=O)Nc1ccc2ccccc2c1 (stereo not shown) [Compound 4043]
Criterion not met

Next molecule: O=C(O)C1CC=CCC1C(=O)Nc1ccc(Br)c2cccnc12 (stereo not shown) [Compound 5244]
Criterion not met

Next: CN(C)CCCNS(=O)(=O)c1ccc2c3c(cccc13)C(=O)N2 [Compound 8010]
Criterion not met

Entry Cc1cc(NS(=O)(=O)c2ccc(NC(=O)c3cc(Cl)ccc3[N+](=O)[O-])cc2)nc(C)n1 [Compound 5003] please
Criterion met

Do the same for Cc1ccc2c(c1)C1CN(C)CCC1N2C(=O)c1cc(Cl)ccc1[N+](=O)[O-] (stereo not shown) [Compound 3959] please
Criterion not met

Entry to check: COc1cc(C(=O)NCC(=N)N)cc(OC)c1OC [Compound 0015]
Criterion met

Further, for CS(=O)(=O)c1ccc2nc(NC(=O)c3ccccc3C(=O)O)sc2c1 [Compound 9107] ?
Criterion not met

Another molecule to look at: NC1=C2N=C(c3ccc([N+](=O)[O-])cc3)NN2NN1 [Compound 8013a]
Criterion not met

Same question, N=c1c(Nc2ccc(F)cc2)nnc(N)n1C(=O)c1ccccc1 [Compound 2074] this time
Criterion met

Now the same for O=C1c2ccccc2C(=O)c2c1cccc2S(=O)(=O)Nc1ccc(Cl)cc1 [Compound 8074]
Criterion not met

Param item: COc1ccc(S(=O)(=O)NCCN2CCOCC2)c2ccccc12 [Compound 7670]
Criterion not met

// next record O=C(O)c1ccc(NS(=O)(=O)c2ccc(Br)cc2)cc1O [Compound 4465]
Criterion met

Same again, this time with N=c1c2sc3nc4ccccc4n3c2ncn1N [Compound 6015]
Criterion met

* * *

# test.system: E. coli β-glucuronidase (eβG) (Escherichia coli)
# Construct: histidine tag (N)
# method.summary: In vitro βG-activity assay (pNPG hydrolysis), eβG
# particulars: recombinant eβG, pNPG substrate, pH 7.3
Assign IC50 to each entry below.
Output spec: scalar in µM, unitless text.

Hi! What's the reported IC50 for Cc1ccc(S(=O)(=O)N=C2C=C(Sc3nnc[nH]3)C(=O)c3ccccc32)cc1 on E. coli β-glucuronidase (eβG) (Escherichia coli)?
2.8

Would you kindly repeat that for CC(C)(C)c1ccc(S(=O)(=O)/N=C2\C=CC(=O)c3ccccc32)cc1 ?
31.6

* * *

# test.system: human βG (hβG) (Homo sapiens, UniProt P08236)
# Construct: histidine tag (N); made in house; host or cells: E. coli BL21 (DE3)
# Sequence (P08236 23-651): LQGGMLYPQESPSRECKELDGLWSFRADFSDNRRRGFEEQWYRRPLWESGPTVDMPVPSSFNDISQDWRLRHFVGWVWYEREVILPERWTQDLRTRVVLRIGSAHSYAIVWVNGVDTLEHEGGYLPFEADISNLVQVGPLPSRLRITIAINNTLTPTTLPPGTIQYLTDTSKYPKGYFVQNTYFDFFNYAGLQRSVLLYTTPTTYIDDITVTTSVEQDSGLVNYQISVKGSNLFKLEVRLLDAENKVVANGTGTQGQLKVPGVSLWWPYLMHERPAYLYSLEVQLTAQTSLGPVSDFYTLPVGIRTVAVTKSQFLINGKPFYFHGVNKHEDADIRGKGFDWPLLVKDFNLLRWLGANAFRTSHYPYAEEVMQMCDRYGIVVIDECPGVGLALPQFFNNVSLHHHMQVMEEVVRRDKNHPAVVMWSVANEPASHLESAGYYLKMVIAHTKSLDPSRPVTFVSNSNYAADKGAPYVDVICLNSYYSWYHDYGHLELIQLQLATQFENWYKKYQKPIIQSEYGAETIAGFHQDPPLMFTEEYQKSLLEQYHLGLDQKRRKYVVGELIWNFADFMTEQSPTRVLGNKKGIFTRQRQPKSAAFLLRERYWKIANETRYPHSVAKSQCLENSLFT
# method.summary: In vitro βG-activity assay (pNPG hydrolysis), hβG
# Format: biochemical
# particulars: pH 5.4, percent of activity vs untreated control
# Procedure: Plasmid pRESTB containing βG gene and a histidine tag at the N-terminus was constructed as described. […] The candidate compounds were purchased from SPECS (The Netherlands). […] Each reaction consisted of 3.75 ng purified βG, 50 μM compound, and 5 mM pNPG in PBS containing 10% DMSO and 0.05% BSA (Sigma-Aldrich). βG-activities were measured by color development of pNP detected on a microplate reader at OD 405 nm. […]
What hβG activity (%) with 50 μM compound was measured for each of the following?
I only need the number, in %, no unit after it.

Report hβG activity (%) with 50 μM compound for NC(N)=Nc1nc2ccc(Br)cc2c(=O)[nH]1 please.
84.13

Would you mind doing O=C(O)c1ccc(NS(=O)(=O)c2ccc(Br)cc2)cc1O as well?
99.50

Follow-up item: O=C(NC(NCc1ccco1)C(Cl)(Cl)Cl)c1ccc(Br)cc1 (centres unmarked)
104.96

Follow-up item: CCN1C(=O)c2cccc3c(S(=O)(=O)N4CCN(C)CC4)ccc1c23
106.69

Further, for CN1CCN(Cc2nc3sc4c(c3c(=O)[nH]2)CCCC4)CC1 ?
88.02

* * *

Please provide measured hβG activity (%) with 50 μM compound for the entries that follow.
# test.system: human βG (hβG) (Homo sapiens, UniProt P08236)
# Construct: histidine tag (N); made in house; host or cells: E. coli BL21 (DE3)
# method.summary: In vitro βG-activity assay (pNPG hydrolysis), hβG
# Assay type: biochemical
# particulars: pH 5.4, percent of activity vs untreated control
Report only the number, with the unit % understood.

Reported hβG activity (%) with 50 μM compound for CC1(C)CC(O)C(C(O)c2cccc([N+](=O)[O-])c2)C(C)(C)N1 (stereo not drawn) [Compound 4021] : what is it?
103.06

Also check N/C(=N\c1nc2c(c(=O)[nH]1)CCC2)Nc1ccccc1 [Compound 5905]
104.96

Same question for NC1=C2N=C(c3ccc([N+](=O)[O-])cc3)NN2NN1 [Compound 8013a] please.
100.33

Same read-out for COc1ccc2ccccc2c1CNCC1CCNCC1 [Compound 9927] ?
113.80

Ok, now CN(C)CCCNS(=O)(=O)c1ccc2c3c(cccc13)C(=O)N2 [Compound 8010]
98.84

Next up: COc1ccc(N2C(=O)CC(NC3CCCCNC3=O)C2=O)cc1 (stereo not drawn) [Compound 7007]
105.79

Try this compound too: Cc1cccc(C(=O)NC2(C(F)(F)F)C(=O)Nc3c2c(=O)[nH]c(=O)n3-c2ccc(Cl)cc2)c1 (stereo not drawn) [Compound 8572]
102.81

Now try CS(=O)(=O)CCC(C(=O)O)N1C(=O)c2ccccc2C1=O (stereo not drawn) [Compound 9063] .
105.45

// same read-out, input: O=C(Nc1ccc(S(=O)(=O)N2CCCC2)cc1)c1[nH]ncc1[N+](=O)[O-] [Compound 6843]
108.76

Then O=S(=O)(c1ccc(Br)cc1)N1CCNCC1 [Compound 8329] ?
97.77

Could you do the same for Cc1cccc2n(C)c(/C=N/N=C(N)N)c[n+]12 [Compound 0956] , please?
103.31

Same question for Cc1cc(NS(=O)(=O)c2ccc(NC(=O)C(C)Oc3ccc(Cl)cc3Cl)cc2)no1 (stereo not drawn) [Compound 8889] please.
102.15

// next record O=[N+]([O-])C12CNCC([N+](=O)[O-])(CNC1)C2 [Compound 8013b]
93.72

Okay, and CCN1CCN(S(=O)(=O)c2cccc(Cl)c2)CC1 [Compound 9572] ?
106.78

Here is the next compound: CS(=O)(=O)c1ccc2nc(NC(=O)c3ccccc3C(=O)O)sc2c1 [Compound 9107]
105.37

Here is the next compound: Cc1ccc2c(c1)C1CN(C)CCC1N2C(=O)c1cc(Cl)ccc1[N+](=O)[O-] (stereo not drawn) [Compound 3959]
105.45

Next: COc1cc2ccccc2cc1C(=O)N1CCN(C)CC1 [Compound 0030]
111.74

Request: N#Cc1cc2[nH]c(=O)c(=O)[nH]c2cc1[N+](=O)[O-] [Compound 5012]
108.51

* * *

# test.system: E. coli β-glucuronidase (eβG) (Escherichia coli, UniProt P05804)
# Construct: histidine tag (N); made in house; host or cells: E. coli BL21 (DE3)
# Sequence (P05804 whole entry): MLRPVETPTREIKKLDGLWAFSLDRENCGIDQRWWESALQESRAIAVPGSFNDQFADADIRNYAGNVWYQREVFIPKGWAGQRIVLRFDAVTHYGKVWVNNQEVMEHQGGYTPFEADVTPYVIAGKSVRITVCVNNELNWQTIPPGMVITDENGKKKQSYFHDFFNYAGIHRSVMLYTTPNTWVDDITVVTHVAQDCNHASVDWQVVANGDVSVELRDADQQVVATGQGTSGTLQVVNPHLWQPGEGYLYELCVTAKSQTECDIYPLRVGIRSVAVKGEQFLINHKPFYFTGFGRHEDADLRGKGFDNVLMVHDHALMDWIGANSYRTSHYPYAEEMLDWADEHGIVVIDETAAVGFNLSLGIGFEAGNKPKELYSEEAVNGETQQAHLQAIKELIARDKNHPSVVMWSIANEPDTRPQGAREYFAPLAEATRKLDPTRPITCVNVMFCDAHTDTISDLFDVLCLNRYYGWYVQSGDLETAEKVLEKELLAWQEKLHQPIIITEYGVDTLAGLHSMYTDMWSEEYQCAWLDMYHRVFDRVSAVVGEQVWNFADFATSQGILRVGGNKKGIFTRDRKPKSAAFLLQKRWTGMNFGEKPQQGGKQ
# method.summary: In vitro βG-activity assay (pNPG hydrolysis), eβG
# Type: biochemical
# particulars: 50 μM compound, pH 7.3, percent of activity vs untreated control
So I've got a bunch of compounds here, and I need their eβG activity (%) with 50 μM compound values.
Number only, in %; omit the unit.

Recall the recorded eβG activity (%) with 50 μM compound for O=C1SCCC1NS(=O)(=O)c1cc(Cl)ccc1Cl (stereo not drawn) with E. coli β-glucuronidase (eβG) (Escherichia coli, UniProt P05804) and state it.
18.73

Same lookup for CS(=O)(=O)CCC(C(=O)O)N1C(=O)c2ccccc2C1=O (stereo not drawn) , please.
32.48

For O=C(Nc1ccc(S(=O)(=O)N2CCCC2)cc1)c1[nH]ncc1[N+](=O)[O-] then?
27.49

Please do the same for N=C1C(c2nc3ccccc3c(=O)[nH]2)=C(O)CN1c1cccc(Cl)c1 as well.
6.70

Consider next the compound Cc1ccc2nc(CSc3nc(-c4ccncc4)ccc3C#N)[nH]c2c1 in the same way.
8.97

Now this one: CN1CCN(C(=O)c2cc3cc([N+](=O)[O-])ccc3oc2=O)CC1
53.06

Could you do the same for CCOC(=O)N1CCC2(CC1)OS(=O)(=O)C=C2N , please?
31.77

How about this compound: N/C(=N\c1nc2c(c(=O)[nH]1)CCC2)Nc1ccccc1
24.93

Follow-up entry: CN1CCN(Cc2nc3sc4c(c3c(=O)[nH]2)CCCC4)CC1
30.27
